Assay: Intrinsic dissolution rate in pH 2.5 HCl/NaCl aqueous solution
Type: physicochemical
Details: pH 2.5 HCl/NaCl, 37° C., slope over 0-45 minutes
recorded metric: IDR (intrinsic dissolution rate) (mg/min/cm^2)
The figure you give is taken to be in mg/min/cm^2; do not add the unit.

Use the examples below as a reference point.
CC#CC(=O)N1CCC[C@H]1c1nc(-c2ccc(C(=O)Nc3ccccn3)cc2)c2c(N)nccn12 [Form D] :: 0.4112
CC#CC(=O)N1CCC[C@H]1c1nc(-c2ccc(C(=O)Nc3ccccn3)cc2)c2c(N)nccn12 [Form I in WO2017002095A1, reference compound] :: 0.3656
CC#CC(=O)N1CCC[C@H]1c1nc(-c2ccc(C(=O)Nc3ccccn3)cc2)c2c(N)nccn12 [Form CS15] :: 0.5778

Looking up CC#CC(=O)N1CCC[C@H]1c1nc(-c2ccc(C(=O)Nc3ccccn3)cc2)c2c(N)nccn12 [Form F] , I found its IDR (intrinsic dissolution rate) recorded as 0.4898

Lab note: CC#CC(=O)N1CCC[C@H]1c1nc(-c2ccc(C(=O)Nc3ccccn3)cc2)c2c(N)nccn12 [Form A] gave IDR (intrinsic dissolution rate) of 0.4520

Record summary for CC#CC(=O)N1CCC[C@H]1c1nc(-c2ccc(C(=O)Nc3ccccn3)cc2)c2c(N)nccn12 [Form G] : reported IDR (intrinsic dissolution rate) = 0.4396

###

Experiment: Intrinsic dissolution rate in pH 2.5 HCl/NaCl aqueous solution
Type: physicochemical
Details: 20 min; pH 2.5 HCl/NaCl, 37° C., 0.5 cm^2 pellet
Quick reference for Cumulative dissolution among some compounds
Express your answer in mg, writing the number without its unit.

CC#CC(=O)N1CCC[C@H]1c1nc(-c2ccc(C(=O)Nc3ccccn3)cc2)c2c(N)nccn12 [Form I in WO2017002095A1, reference compound] :: 3.66
CC#CC(=O)N1CCC[C@H]1c1nc(-c2ccc(C(=O)Nc3ccccn3)cc2)c2c(N)nccn12 [Form F] :: 5.30
CC#CC(=O)N1CCC[C@H]1c1nc(-c2ccc(C(=O)Nc3ccccn3)cc2)c2c(N)nccn12 [Form CS15] :: 5.60
CC#CC(=O)N1CCC[C@H]1c1nc(-c2ccc(C(=O)Nc3ccccn3)cc2)c2c(N)nccn12 [Form D] :: 3.57
CC#CC(=O)N1CCC[C@H]1c1nc(-c2ccc(C(=O)Nc3ccccn3)cc2)c2c(N)nccn12 [Form G] :: 4.76

Proceeding to the next compound to report its Cumulative dissolution.
Value of Cumulative dissolution reported for the compound CC#CC(=O)N1CCC[C@H]1c1nc(-c2ccc(C(=O)Nc3ccccn3)cc2)c2c(N)nccn12 [Form A] is 4.73

###

Cumulative dissolution for assorted compounds
Test: Intrinsic dissolution rate in pH 2.5 HCl/NaCl aqueous solution
Type: physicochemical
Conditions: 45 min; pH 2.5 HCl/NaCl, 37° C., 0.5 cm^2 pellet
Output spec: scalar in mg, unitless text.

Consider the reported Cumulative dissolution for these compounds:
CC#CC(=O)N1CCC[C@H]1c1nc(-c2ccc(C(=O)Nc3ccccn3)cc2)c2c(N)nccn12 [Form A] :: 9.93
CC#CC(=O)N1CCC[C@H]1c1nc(-c2ccc(C(=O)Nc3ccccn3)cc2)c2c(N)nccn12 [Form I in WO2017002095A1, reference compound] :: 8.16
CC#CC(=O)N1CCC[C@H]1c1nc(-c2ccc(C(=O)Nc3ccccn3)cc2)c2c(N)nccn12 [Form D] :: 9.72
CC#CC(=O)N1CCC[C@H]1c1nc(-c2ccc(C(=O)Nc3ccccn3)cc2)c2c(N)nccn12 [Form G] :: 9.50
CC#CC(=O)N1CCC[C@H]1c1nc(-c2ccc(C(=O)Nc3ccccn3)cc2)c2c(N)nccn12 [Form F] :: 10.44

Input CC#CC(=O)N1CCC[C@H]1c1nc(-c2ccc(C(=O)Nc3ccccn3)cc2)c2c(N)nccn12 [Form CS15] . Output Cumulative dissolution: 12.41

###

Assay: Intrinsic dissolution rate in pH 2.5 HCl/NaCl aqueous solution
Format: physicochemical
Conditions: 25 min; pH 2.5 HCl/NaCl, 37° C., 0.5 cm^2 pellet
Experimental: Approximately 200 mg of Form A and Form I in WO2017002095A1 were added into the die, compressed at 10 kN and held for 1 minute to obtain a pellet having a surface area of 0.5 cm^2. The whole tool with the pellet was transferred to a dissolution apparatus to test the intrinsic dissolution rate. The slope (mg/min) was calculated according to the data within 0-45 minutes. Intrinsic dissolution rate (IDR, mg/min/cm^2) was further calculated according to the slope. […]
# Cumulative dissolution listing for each entry below
Field format: number, assumed mg, no unit text.

Would you please look over these solved cases?
CC#CC(=O)N1CCC[C@H]1c1nc(-c2ccc(C(=O)Nc3ccccn3)cc2)c2c(N)nccn12 [Form CS15] :: 7.89
CC#CC(=O)N1CCC[C@H]1c1nc(-c2ccc(C(=O)Nc3ccccn3)cc2)c2c(N)nccn12 [Form D] :: 4.77
CC#CC(=O)N1CCC[C@H]1c1nc(-c2ccc(C(=O)Nc3ccccn3)cc2)c2c(N)nccn12 [Form G] :: 5.51

CC#CC(=O)N1CCC[C@H]1c1nc(-c2ccc(C(=O)Nc3ccccn3)cc2)c2c(N)nccn12 [Form A] yielded Cumulative dissolution of 5.79

Quick note, Cumulative dissolution for CC#CC(=O)N1CCC[C@H]1c1nc(-c2ccc(C(=O)Nc3ccccn3)cc2)c2c(N)nccn12 [Form F] landed at 6.50

Entry under test: CC#CC(=O)N1CCC[C@H]1c1nc(-c2ccc(C(=O)Nc3ccccn3)cc2)c2c(N)nccn12 [Form I in WO2017002095A1, reference compound] . Its Cumulative dissolution was 4.62
